- Tested on: Candida albicans
- assay-protocol: Antifungal activity against Candida albicans at 1 to 10 mg/mL after 3 to 4 days by agar well diffusion method
- Format: functional
experimental-endpoint: diameter of the inhibition zone (DIZ)

Q: Look up diameter of the inhibition zone (DIZ): COc1cc(C2c3c(nc(N)c(C#N)c3N)Oc3[nH]c(=S)[nH]c(=O)c32)cc(OC)c1OC (stereo not given)
A: 10 mm

Q: Look up diameter of the inhibition zone (DIZ): CCOC(=O)C1=C(N)Sc2[nH]c(=S)[nH]c(=S)c2C1c1ccc(Cl)cc1 (stereo not given)
A: 14 mm

Q: Look up diameter of the inhibition zone (DIZ): COc1cc(C2C(C#N)=C(N)Oc3[nH]c(=S)[nH]c(=O)c32)cc(OC)c1OC (stereo not given)
A: 10 mm

Q: Look up diameter of the inhibition zone (DIZ): NNC=C1C(=O)NC(=S)NC1=O
A: 0 mm

Q: Look up diameter of the inhibition zone (DIZ): O=c1[nH]c(=S)nc2oc3cc(O)ccc3cc1-2
A: 0 mm

Q: Look up diameter of the inhibition zone (DIZ): COc1cc(C2C(C#N)=C(NS(=O)(=O)c3ccccc3)Oc3[nH]c(=S)[nH]c(=O)c32)cc(OC)c1OC (stereo not given)
A: 12 mm

Q: Look up diameter of the inhibition zone (DIZ): CCOC(=O)C1=C(N)Oc2[nH]c(=S)[nH]c(=O)c2C1c1ccc(Cl)cc1 (stereo not given)
A: 13 mm

Q: Look up diameter of the inhibition zone (DIZ): COc1cc(C2c3c(nc[nH]c3=O)Oc3[nH]c(=S)[nH]c(=O)c32)cc(OC)c1OC (stereo not given)
A: 11 mm

Q: Look up diameter of the inhibition zone (DIZ): CCOC=C1C(=O)NC(=S)NC1=O
A: 12 mm

Q: Look up diameter of the inhibition zone (DIZ): C[C@@H]1[C@H](O)[C@@H](C)/C=C/C=C/C=C/C=C/C=C/C=C/C=C/[C@H](O[C@@H]2O[C@H](C)[C@@H](O)[C@H](N)[C@@H]2O)C[C@@H]2O[C@](O)(C[C@@H](O)C[C@@H](O)[C@H](O)CC[C@@H](O)C[C@@H](O)CC(=O)O[C@H]1C)C[C@H](O)[C@H]2C(=O)O
A: 19 mm

Where do these numbers come from? They come from ChEMBL document CHEMBL1926503.
